System: Erythrocyte
Test: Antioxidant activity against H2O2-induced oxidative stress in mouse RBC assessed as inhibition of LPO accumulation at 10 uM pretreated for 30 mins followed by H2O2 addition and measured after 4 hrs by TBARS assay relative to control
Type: functional
readout label: inhibition at 10 µM (%)
Your answer is read as %, so omit the unit and give the number.

CCCCNCc1c(O)c(CC=C(C)C)c(O)c2c(=O)c3c(CC=C(C)C)c(OC)c(O)cc3oc12 :: 70.5

Challenge: Annotate the compound `CC(C)=CCc1c(O)c(CN2CCCCCC2)c2oc3c(CN4CCCCCC4)c(O)c(O)c(CC=C(C)C)c3c(=O)c2c1O` with its measured inhibition at 10 µM.
Response given: 71.5

* * *

Tested on: Erythrocyte
Assay: Protection against H2O2-induced oxidative stress in mouse RBC assessed as inhibition of hemolysis at 0.05 uM pretreated for 30 mins followed by H2O2 addition and measured after 5 hrs by malondialdehyde indicator based assay relative to control
Type: functional
Listed next: entries and their corresponding inhibition at 0.05 µM.
Express it in %; write the number only.

CC(C)=CCc1c(O)cc2oc3cc(O)c(O)c(CC=C(C)C)c3c(=O)c2c1O :: 85.9
CC(C)=CCc1c(O)c(CN(C)C)c2oc3c(CN(C)C)c(O)c(O)c(CC=C(C)C)c3c(=O)c2c1O :: 78
CC(C)=CCc1c(O)c(CN2CCOCC2)c2oc3c(CN4CCOCC4)c(O)c(O)c(CC=C(C)C)c3c(=O)c2c1O :: 79.6

# next compound below
Challenge: # return recorded inhibition at 0.05 µM for entry `CC(C)=CCc1c(O)c(CN2CCCCCC2)c2oc3c(CN4CCCCCC4)c(O)c(O)c(CC=C(C)C)c3c(=O)c2c1O`
Response given: 74.3

* * *

System: Erythrocyte
Test: Antioxidant activity against H2O2-induced oxidative stress in mouse RBC assessed as inhibition of LPO accumulation at 10 uM pretreated for 30 mins followed by H2O2 addition and measured after 4 hrs by TBARS assay relative to control
Assay type: functional
Reported inhibition at 10 µM values for the following compounds.
State just the number; it will be interpreted in %.

CCCCNCc1c(O)c(CC=C(C)C)c(O)c2c(=O)c3c(CC=C(C)C)c(OC)c(O)c(CN(C)C)c3oc12 :: 61.5
COc1c(O)cc2oc3c(CN4CCCC4)c(O)c(CC=C(C)C)c(O)c3c(=O)c2c1CC=C(C)C :: 68.2
COc1c(O)c(CN(C)C)c2oc3c(CN(C)C)c(O)c(CC=C(C)C)c(O)c3c(=O)c2c1CC=C(C)C :: 58.2
CC(C)=CCc1c(O)cc2oc3cc(O)c(O)c(CC=C(C)C)c3c(=O)c2c1O :: 68.1
CC(C)=CCc1c(O)c(CN2CCOCC2)c2oc3c(CN4CCOCC4)c(O)c(O)c(CC=C(C)C)c3c(=O)c2c1O :: 68.8

Moving on to the next compound.
Challenge: Fill in inhibition at 10 µM for record `COc1c(O)c(CN2CCCCCC2)c2oc3c(CN4CCCCCC4)c(O)c(CC=C(C)C)c(O)c3c(=O)c2c1CC=C(C)C`
Response given: 54.1

* * *

System: Erythrocyte
Experiment: Antioxidant activity against H2O2-induced oxidative stress in mouse RBC assessed as inhibition of LPO accumulation at 10 uM pretreated for 30 mins followed by H2O2 addition and measured after 4 hrs by TBARS assay relative to control
Type: functional
Items are presented alongside their recorded inhibition at 10 µM.
# output: bare number, implied unit %

# annotated cases, reported inhibition at 10 µM shown
COc1c(O)c(CN2CCOCC2)c2oc3c(CN4CCOCC4)c(O)c(CC=C(C)C)c(O)c3c(=O)c2c1CC=C(C)C :: 57.4
COc1c(O)cc2oc3c(CN4CCCCCC4)c(O)c(CC=C(C)C)c(O)c3c(=O)c2c1CC=C(C)C :: 48.9

Challenge: Tell me inhibition at 10 µM reported for `CC(C)=CCc1c(O)c(CN(C)C)c2oc3c(CN(C)C)c(O)c(O)c(CC=C(C)C)c3c(=O)c2c1O`
Response given: 75.7

Challenge: Give me measured inhibition at 10 µM, please, for this compound: `COc1c(O)c(CN2CCCCCC2)c2oc3c(CN4CCOCC4)c(O)c(CC=C(C)C)c(O)c3c(=O)c2c1CC=C(C)C`
Response given: 33.6
